Source of measurements: the nanobody polyreactivity screen of Harvey et al. (2022)

# methodNotes: yeast display, Sf9 membrane polyspecificity reagent, FACS + sequencing; frameworks hold sequencing errors
recordedMetric: polyreactivity (PSR sort gate)

Worked cases, answers included:
QVQLVESGGGLVQAGGSLRLSCAASGRTFRFYAMGWYRQAPGKEREFVAAISRSVGSTYYADSVKGRFTISRDNAKNTVDLQMNSLKPEDTAVYYCNADYRSRYVEYDYWGQGTQVTVSS    high polyreactivity
QVQLVESAVGLVQAGGSLRLSSAASGFTFLNYAMGSYRQAPGKVRELVAAITWSGGNTYYADSVMGRFTISRDNAKNTVYLQMNSLKPEDTAVYYCAADYRARGKFYWGQGTQVTVSS    high polyreactivity
QVQLVDSGGGLVQAGGSLRLSCASSGRIFHGYAMGWYRHAPGKERELVAAIDEDGGSTYYADSVKGRFTISRDNAKNTVYLQMNSLKPEDTAVYYCATDALYTYGYDYWGQGTQVTVSS    low polyreactivity
QVQLVESGGGLVQAGGSLRLSCAASGSTFFYNAMGWYRQAPGKERELVASINDRAGRTYYADSVKGRFTISRDNAKNTVYLQMNSLKPEDTAVYYCAAEPWYKFDYDYWGQGTQVTVSS    low polyreactivity
QVQLVESGGGLVQAGGSHRLSCAASGSIFRWYAMGWYRQAPGKERELVAAITSGGGTNYADSVKGRFTISRDNAKNTVYIQMNCLKPEDTAVYYCNAAAWLRWGYRGGFWRYDYWGQGTQVTVSS    high polyreactivity

Hi team, please reply with polyreactivity (PSR sort gate) for each item in this list.
1. QVQLVESGGGLVQAGGSLRLSCAASGRIFYFNAMGWYRQAPGKERELVAAISWRGGSTYYADSVKGRFTISRDYAKNTVYLQMNSLKPEDTAVYYCNAVLWGYWPGYDYWGQGTQVTVSS
2. QVQLVESGGGLVQAGGSLRLSCAASGLIFLWYAMGWYRQAPGKERELVAAIRSSGDSTYYADSVKGRFTISRDNAKNTVYLQMNSLKPEDTAVYYCNRRKTNSRYDYCGQGTQVTVSS
3. QVQLVESGGGLVQAGGSLRLSCAASGRTFGRNAMGWYRQAPGKERELVADISLRGGRTYYADSVKGRFTISRDNAKNTVYLQMNSLKPEDTAVYYCAAVQPVGLYPRTKYYYWGQGTQVTVSS
4. QVHLVESGGGLVQAGGSLRLSCSASGRTFPKYAMGWYRQAPGKERELVAAINKSGGSRYYADSVKGRFTISRDYAKNTVYLQMNSLKPEDTAVYYCAADWRGWSFFRGDDYWGQGTQVTVSS
5. QVQLVESGGGLVQAGGSLRLSCAASGFTFKFYAMGWYRQAPGKERELVAAISARGGITYYADSVKGRFTISRDNAKNTVYLQMNSLKPEDTAVYYCAAGVFGHYAFVEFDYWGQGTQVTVSS
6. QVQLVESGGGLVQAGGSLRLSCAASGNTLIQYAMGWIIQAPGKEREVLAGISGTDDSTYYADSVKGRFTISRDNAKNTVYFQMTSLKPEDRSVYYCATREWYDKYPNIYVSFDYWGQGTQVTVSS

["high polyreactivity", "low polyreactivity", "high polyreactivity", "high polyreactivity", "high polyreactivity", "low polyreactivity"]
